Test system: L-363
Assay procedure: cells
Format: functional, cell-based
Measurement parameters: Homo sapiens
Description: SANGER: Inhibition of human L-363 cell growth in a cell viability assay.
So I've got a bunch of molecules here, and I need their pIC50 values.
One number for each entry, as −log10 of the molar value.

Fc1cc(-c2cc[nH]/c(=N/c3ccc(-n4cnc(N5CCOCC5)n4)cc3)n2)cc(N2CCOCC2)c1 ... 6.35
C/C=C(/C)C(=O)O[C@H]1C(C)=C2[C@H]([C@@H]1OC(=O)CCCCCCC)[C@@](C)(OC(C)=O)C[C@H](OC(=O)CCC)[C@@]1(O)[C@H]2OC(=O)[C@@]1(C)O [THAPSIGARGIN] ... 9.08

Field: next molecule
query: # value lookup — system L-363, readout pIC50, item CO[C@@]12[C@H](COC(N)=O)C3=C(C(=O)C(C)=C(N)C3=O)N1C[C@@H]1N[C@@H]12 [MITOMYCIN]
result: 6.36

###

Assignment: determine reported IC50 for the given molecules.
Test system: SNU-449
Assay procedure: cells
Format: functional, cell-based
Measurement parameters: Homo sapiens
Description: SANGER: Inhibition of human SNU-449 cell growth in a cell viability assay.

C[C@]1(c2nc3c(C(N)=O)cccc3[nH]2)CCCN1 ... > 5 µM
C[C@]12O[C@H](C[C@]1(O)CO)n1c3ccccc3c3c4c(c5c6ccccc6n2c5c31)CNC4=O ... > 2 µM
CCCS(=O)(=O)Nc1ccc(F)c(C(=O)c2c[nH]c3ncc(Cl)cc23)c1F ... > 10 µM
Cn1cc(/C=C2\C(=O)Nc3cccnc32)c2ccccc21 ... > 2 µM

Now, please, on to the next molecule.
query: Report IC50 for O=c1cc(N2CCOCC2)oc2c(-c3cccc4c3sc3ccccc34)cccc12 please.
result: > 2 µM

###

Task for the reader: assign each of the following compounds its reported IC50.
Tested on: UACC-62;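 further: growth inhibition of human UACC-62 cells, read out by a cell viability assay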
Assay procedure: cells
Format: functional, cell-based
Measurement parameters: Homo sapiens
Description: SANGER: Inhibition of human UACC-62 cell growth in a cell viability assay.

Please give IC50 for each item listed below.
1. N#C/C(=C1/Nc2ccccc2S1)c1ccnc(NCCc2cccnc2)n1
2. C[C@]12O[C@H](C[C@]1(O)CO)n1c3ccccc3c3c4c(c5c6ccccc6n2c5c31)CNC4=O
3. CCNC(=O)c1noc(-c2cc(C(C)C)c(O)cc2O)c1-c1ccc(CN2CCOCC2)cc1
4. CC(C)=CC[C@@H](O)C1=CC(=O)c2c(O)ccc(O)c2C1=O

result:
1: > 8000 nM; 2: 1120 nM; 3: 121 nM; 4: 1230 nM

###

Test system: NCI-H719;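 further: growth inhibition of the cultured cell line, read out with a viability assay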
Assay procedure: cells
Assay type: functional, cell-based
Measurement parameters: Homo sapiens
Description: SANGER: Inhibition of human NCI-H719 cell growth in a cell viability assay.
Please respond with reported IC50 for every item in the list.

Illustrative cases are given below, each with its answer.
Fc1cc(-c2cc[nH]/c(=N/c3ccc(-n4cnc(N5CCOCC5)n4)cc3)n2)cc(N2CCOCC2)c1 ... 2240 nM
C/C=C(/C)C(=O)O[C@H]1C(C)=C2[C@H]([C@@H]1OC(=O)CCCCCCC)[C@@](C)(OC(C)=O)C[C@H](OC(=O)CCC)[C@@]1(O)[C@H]2OC(=O)[C@@]1(C)O ... > 512 nM
Cc1ccc(NC(=O)c2cccc(C(C)(C)C#N)c2)cc1Nc1ccc2ncn(C)c(=O)c2c1 ... > 4000 nM

query: Notebook entry, NCI-H719 assay: IC50 of CCNC(=O)c1noc(-c2cc(C(C)C)c(O)cc2O)c1-c1ccc(CN2CCOCC2)cc1 = ?
result: > 256 nM
